Let's look at some compounds and their measured %Inh.
Test system: MARK3
test.parameters: concentration: 1 μM, replicates: in singlicate; n = 1;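 note: KINOMEscan kinase panel screen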

- compound: "OCCCNc1nccc(-c2c(-c3cccc(C(F)(F)F)c3)nn3cc(C(F)(F)F)ccc23)n1 [GW630813]"
  test.system: "MARK3"
  units.symbol: "%"
  %Inh: 0
- compound: "Nc1nccc2scc(-c3ccc4c(c3)CCN4C(=O)Cc3ccccc3)c12 [GSK2576924]"
  test.system: "MARK3"
  units.symbol: "%"
  %Inh: 1
- compound: "Cc1cccc(-c2cc(-c3c[nH]nc3-c3ccccn3)ccn2)c1 [GW679395]"
  test.system: "MARK3"
  units.symbol: "%"
  %Inh: 0
- compound: "Nc1ncnc2c1ncn2-c1cccc(F)c1 [SKF-97560]"
  test.system: "MARK3"
  units.symbol: "%"
  %Inh: 0
- compound: "CCC(=O)c1c(-c2ccccc2)c2cc(Cl)ccc2c(=O)n1Cc1cc(S(C)(=O)=O)n(CCC(C)(C)O)n1"
  test.system: "MARK3"
  units.symbol: "%"
  %Inh: 18

----------
Catalogue of %Inh readings, one per entry.
System: RSK4(Kin.Dom.1-N-terminal)
Construct: gene RPS6KA6
test.parameters: concentration: 1 μM, replicates: in singlicate; n = 1
observable: %Inh (%)

- compound: "Cc1cc(Nc2nc(-c3cccc(C)n3)nc3ccccc23)ccn1 [GW872411]"
  units.symbol: "%"
  result.value: 0
- compound: "C[C@@H]1CC[C@H](C(=O)NC2CCCCC2)CN1c1cc(-c2ccc3c(N)n[nH]c3c2)nc(N)n1 [GSK2291363]"
  units.symbol: "%"
  result.value: 11
- compound: "COc1cc2ncn(-c3cc(OCc4ccncc4)c(C(N)=O)s3)c2cc1OC [GSK336313]"
  units.symbol: "%"
  result.value: 0

----------
# %Inh per record follows
Tested on: AKT3
test.parameters: concentration: 1 μM, replicates: in singlicate; n = 1

- compound: "COc1ccc(-n2cnc3c(N)ncnc32)cc1"
  %Inh [%]: 11
- compound: "Nc1nc(-c2ccccc2F)c(-c2ccnc3ccccc23)s1"
  %Inh [%]: 0
- compound: "Cc1nc(N(C)[C@H]2CN(C(=O)CC#N)CC[C@H]2C)c2cc[nH]c2n1"
  %Inh [%]: 3
- compound: "CCC(=O)c1c(-c2ccccc2)c2cc(Cl)ccc2c(=O)n1Cc1ccc(C(=O)O)cc1"
  %Inh [%]: 0
- compound: "CCS(=O)(=O)c1ccc(OC)c(Nc2ncc(-c3ccc(F)cc3)o2)c1.Cl"
  %Inh [%]: 9
- compound: "O=C(Nc1n[nH]c2nc(-c3ccccc3)c(Cl)cc12)C1CC1"
  %Inh [%]: 0
- compound: "Nc1nccc2scc(-c3ccc4c(c3)CCN4C(=O)Cc3ccccc3)c12"
  %Inh [%]: 0
- compound: "CCn1c(-c2nonc2N)nc2ccccc21"
  %Inh [%]: 0
- compound: "Cn1c(=O)c(F)c(Nc2ccc(I)cc2F)c2c(=O)n(OC[C@H](O)CO)cnc21"
  %Inh [%]: 0
- compound: "COc1cccc(-n2cnc3c(N)ncnc32)c1"
  %Inh [%]: 22
- compound: "COC(=O)c1c(-c2ccccc2)c2cc(Br)ccc2c(=O)n1Cc1ccc(NC(=O)CCC(=O)O)cc1"
  %Inh [%]: 0
- compound: "O=C(Nc1n[nH]c2cc(-c3ccccc3F)ccc12)C1CC1"
  %Inh [%]: 7
- compound: "O=C(Nc1n[nH]c2nc(-c3ccccc3)c(Br)cc12)C1CC1"
  %Inh [%]: 0
- compound: "COc1ccc(CNC(=O)NC2CCN(c3ccnc(Nc4ccc(F)cc4)n3)C2)cc1 (centres unmarked)"
  %Inh [%]: 0
- compound: "O=C(NCc1cccs1)c1cc(C(=O)c2c(Cl)cccc2Cl)c[nH]1"
  %Inh [%]: 0
- compound: "COc1cc2ncn(-c3cc(OCc4ccncc4Br)c(C(N)=O)s3)c2cc1OC"
  %Inh [%]: 0
- compound: "COc1cc2ncn(-c3cc(OCc4ccc(S(C)(=O)=O)cc4)c(C(N)=O)s3)c2cc1OC"
  %Inh [%]: 0
- compound: "COc1cc2nccc(Nc3cccc(Oc4ccccc4)c3)c2cc1OC.Cl"
  %Inh [%]: 0
- compound: "COc1cc(Nc2nccc(N3CCC(NC(=O)C4COc5ccccc5O4)C3)n2)cc(OC)c1OC (centres unmarked)"
  %Inh [%]: 0
- compound: "COc1cc(Nc2nccc(N3CCC(NC(=O)C(C)c4ccc(Cl)cc4)C3)n2)cc(OC)c1OC (centres unmarked)"
  %Inh [%]: 0
- compound: "C[C@@H]1CC[C@H](C(=O)NC2CCCCC2)CN1c1cc(-c2ccc3c(N)n[nH]c3c2)nc(N)n1"
  %Inh [%]: 0
- compound: "Nc1n[nH]c2ncc(-c3ccccc3)cc12"
  %Inh [%]: 0
- compound: "COc1ccc(-c2coc3ccc(-c4nnc(SCc5cccc(C#N)c5)o4)cc23)cc1"
  %Inh [%]: 0

----------
%Inh reference
Tested on: TSSK3
test.parameters: concentration: 1 μM, replicates: in singlicate; n = 1
observable: %Inh (%)

- compound: "COc1ccc(-n2cnc3c(N)ncnc32)cc1 [SKF-97236]"
  test.system: "TSSK3"
  observable: "%Inh"
  result.value: 0
- compound: "Cc1ccccc1COc1cc(-n2cnc3cc(Cl)ccc32)sc1C(N)=O [GW813349]"
  test.system: "TSSK3"
  observable: "%Inh"
  result.value: 0
- compound: "O=c1cc(N2CCOCC2)nc2n(Cc3ccc(F)c(Cl)c3)ccn12 [GSK2297099]"
  test.system: "TSSK3"
  observable: "%Inh"
  result.value: 9

----------
System: ALK
test.parameters: concentration: 1 μM, replicates: in singlicate; n = 1
Quick reference: %Inh of the listed items.

- compound: "CCC(=O)c1c(-c2ccccc2)c2cc(Cl)ccc2c(=O)n1Cc1cc(S(C)(=O)=O)n(CCC(C)(C)O)n1"
  test.system: "ALK"
  %Inh (%): 0
- compound: "COC(=O)c1c(-c2ccccc2)c2cc(Br)ccc2c(=O)n1Cc1ccc(NC(=O)CCC(=O)O)cc1"
  test.system: "ALK"
  %Inh (%): 52
- compound: "Cc1cc(Nc2nc(-c3cccc(C)n3)nc3ccccc23)ccn1 [GW872411]"
  test.system: "ALK"
  %Inh (%): 0
- compound: "CCS(=O)(=O)c1ccc(OC)c(Nc2ncc(-c3ccc(F)cc3)o2)c1.Cl [GW591947]"
  test.system: "ALK"
  %Inh (%): 22
- compound: "CCn1c(-c2nonc2N)nc2ccccc21 [SB-693162/GW549034]"
  test.system: "ALK"
  %Inh (%): 0
- compound: "Cc1ccc(Oc2ccc(Nc3ncnc4cc[nH]c34)cc2C)cn1"
  test.system: "ALK"
  %Inh (%): 7
- compound: "COc1cccc(-n2cnc3c(N)ncnc32)c1 [SKF-97416]"
  test.system: "ALK"
  %Inh (%): 56
- compound: "Nc1ncnc2c1ncn2-c1ccc(Cl)cc1 [AH2635]"
  test.system: "ALK"
  %Inh (%): 0
- compound: "COc1ccc(Nc2nccc(N3CCC(NS(=O)(=O)c4ccc(NC(C)=O)cc4)C3)n2)cc1 (stereo not shown) [GSK1379729]"
  test.system: "ALK"
  %Inh (%): 16
- compound: "O=C(Nc1ccc2c(c1)OCO2)NC1CCN(c2ccnc(NCc3ccc(F)cc3)n2)CC1 [GSK1379859]"
  test.system: "ALK"
  %Inh (%): 9
- compound: "OCCCNc1nccc(-c2c(-c3cccc(C(F)(F)F)c3)nn3cc(C(F)(F)F)ccc23)n1 [GW630813]"
  test.system: "ALK"
  %Inh (%): 0
- compound: "CCc1ccc(-c2ccc3c(c2)-c2nn(C)cc2S(=O)(=O)N3C)cc1"
  test.system: "ALK"
  %Inh (%): 10
- compound: "COc1ccc(-c2cc3c(C)nc(N)nc3n([C@H]3CC[C@H](OCCO)CC3)c2=O)cn1"
  test.system: "ALK"
  %Inh (%): 0
- compound: "Nc1n[nH]c2nnc(-c3ccccc3)c(-c3ccccc3)c12 [GW554060]"
  test.system: "ALK"
  %Inh (%): 35
- compound: "CCCC(=O)Nc1n[nH]c2ncc(-c3cccc4ccccc34)cc12 [SB-642057]"
  test.system: "ALK"
  %Inh (%): 29
- compound: "CCCNC(=O)Nc1ccc(Oc2ncnc3ccn(C)c23)cc1"
  test.system: "ALK"
  %Inh (%): 0
- compound: "Fc1cccc(CSc2nnc(-c3ccc4c(c3)CCO4)o2)c1"
  test.system: "ALK"
  %Inh (%): 79
- compound: "COc1cccc(C2=C(Nc3cccc(C(=O)O)c3)C(=O)NC2=O)c1 [SB-390770]"
  test.system: "ALK"
  %Inh (%): 0
- compound: "COc1cccc(C2=C(N(C)c3ccccc3)C(=O)NC2=O)c1 [SB-334865]"
  test.system: "ALK"
  %Inh (%): 24
- compound: "O=C(NCc1cccs1)c1cc(C(=O)c2c(Cl)cccc2Cl)c[nH]1 [GW823670]"
  test.system: "ALK"
  %Inh (%): 0
- compound: "Nc1ncnc2c1ncn2-c1cccc2ccccc12 [SKF-97184]"
  test.system: "ALK"
  %Inh (%): 0
- compound: "Cc1nnc(-c2ccc3ncn(-c4ccc(S(C)=O)cc4)c3c2)o1 (stereo not shown)"
  test.system: "ALK"
  %Inh (%): 6
- compound: "CN1C(=O)C(Nc2ccccc2)=C(c2ccccc2)C1=O [SB-300079]"
  test.system: "ALK"
  %Inh (%): 7
- compound: "O=c1cc(N2CCOCC2)nc2n(Cc3ccc(F)c(Cl)c3)ccn12 [GSK2297099]"
  test.system: "ALK"
  %Inh (%): 20
- compound: "COc1cc(Nc2ccnc3ccc(C(F)(F)F)cc23)cc(OC)c1OC [GW577382]"
  test.system: "ALK"
  %Inh (%): 22
